- experiment description: growth suppression of beta-catenin knockout HCT116, pilot screen, human colon tumor cells (AID 823);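 also: 0% = wells killed by 20 µM Hyamine and 100% = untreated DMSO cell wells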
- run conditions: CellTiter-Glo, 60 h, at 10 µM, hits give low values
Records with an inconclusive call do not appear. Calls of active or inactive are those of the source.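 The calls were made as follows: active = cell viability at or below a set limit in both duplicate runs, the limit being the all-compound median minus 4 SD (cut at about 23% in these data, passing the limit was not always enough); inconclusive = no clear call, values can overlap the other calls; inactive = the rest.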
endpoint: viability

Examples with answers:
compound: O=C(/C=C\Nc1ccccn1)c1ccc(Cl)cc1
viability: 83.5% (inactive)

compound: COc1ccc(CCNC(=O)CC2Oc3ccc(Cl)cc3NC2=O)cc1OC (stereo unspecified)
viability: 96.2% (inactive)

compound: CNc1ccc(OC(F)F)cc1C(=O)c1ccccc1
viability: 89.8% (inactive)

Query string: # return recorded viability for input `CN(C)c1nc(N)nc(N(c2ccccc2)c2ccccc2)n1`
Result string: 93.6% (inactive)

Query string: Please report viability for the following compound: COc1cc(NC(=O)C2CCC(CNc3c(N4CCCCC4)c(=O)c3=O)CC2)cc(OC)c1 (stereo unspecified)
Result string: 95.2% (inactive)

Query string: Quote viability reported for CCc1cc2c(=O)c(-c3nc4ccccc4[nH]3)coc2c(CN2CCCC(C)C2)c1O (stereo unspecified) please.
Result string: 103% (inactive)
